The values you see were collected from patent US8956445B2.

assay: Surface tension (DuNuoy Tensiometer); format: physicochemical; conditions: room temperature (23° C.)
# Lookup of reported Surface Tension keyed by entry

Below, 10 molecules whose answers are already recorded.
Cn1cc[n+](CCCCCC[n+]2ccn(C)c2)c1.O=S(=O)([N-]S(=O)(=O)C(F)(F)F)C(F)(F)F.O=S(=O)([N-]S(=O)(=O)C(F)(F)F)C(F)(F)F [C6(mim)2-NTf2]    44.2 dynes/cm
Cn1cc[n+](CCCCCCCCC[n+]2ccn(C)c2)c1.F[B-](F)(F)F.F[B-](F)(F)F [C9(mim)2-BF4]    61.2 dynes/cm
Cn1cc[n+](CCCCCCCCCCCC[n+]2ccn(C)c2)c1.O=S(=O)([N-]S(=O)(=O)C(F)(F)F)C(F)(F)F.O=S(=O)([N-]S(=O)(=O)C(F)(F)F)C(F)(F)F [C12(mim)2-NTf2]    42.3 dynes/cm
Cc1n(C)cc[n+]1CCCCCCCCC[n+]1ccn(C)c1C.F[B-](F)(F)F.F[B-](F)(F)F [C9(m2im)2-BF4]    58.1 dynes/cm
Cn1cc[n+](CCCCCCCCCCCC[n+]2ccn(C)c2)c1.F[P-](F)(F)(F)(F)F.F[P-](F)(F)(F)(F)F [C12(mim)2-PF6]    53.4 dynes/cm
CCCCn1cc[n+](CCCCCCCCC[n+]2ccn(CCCC)c2)c1.F[B-](F)(F)F.F[B-](F)(F)F [C9(bim)2-BF4]    50.4 dynes/cm
CCCCn1cc[n+](CCCCCCCCC[n+]2ccn(CCCC)c2)c1.F[P-](F)(F)(F)(F)F.F[P-](F)(F)(F)(F)F [C9(bim)2-PF6]    48.0 dynes/cm
CCCCn1cc[n+](CCCCCCCCC[n+]2ccn(CCCC)c2)c1.O=S(=O)([N-]S(=O)(=O)C(F)(F)F)C(F)(F)F.O=S(=O)([N-]S(=O)(=O)C(F)(F)F)C(F)(F)F [C9(bim)2-NTf2]    38.0 dynes/cm
Cn1cc[n+](CCCCCCCCC[n+]2ccn(C)c2)c1.O=S(=O)([N-]S(=O)(=O)C(F)(F)F)C(F)(F)F.O=S(=O)([N-]S(=O)(=O)C(F)(F)F)C(F)(F)F [C9(mim)2-NTf2]    43.1 dynes/cm
O=S(=O)([N-]S(=O)(=O)C(F)(F)F)C(F)(F)F.O=S(=O)([N-]S(=O)(=O)C(F)(F)F)C(F)(F)F.c1ccc(Cn2cc[n+](CCCCCCCCCCCC[n+]3ccn(Cc4ccccc4)c3)c2)cc1 [C12(benzim)2-NTf2]    41.5 dynes/cm

Field Surface Tension (entry F[P-](F)(F)(F)(F)F.F[P-](F)(F)(F)(F)F.c1ccc(Cn2cc[n+](CCCCCCCCCCCC[n+]3ccn(Cc4ccccc4)c3)c2)cc1 [C12(benzim)2-PF6] ) reads 47.4 dynes/cm

// recorded Surface Tension for Cn1cc[n+](CCC[n+]2ccn(C)c2)c1.O=S(=O)([N-]S(=O)(=O)C(F)(F)F)C(F)(F)F.O=S(=O)([N-]S(=O)(=O)C(F)(F)F)C(F)(F)F [C3(mim)2-NTf2] : 44.7 dynes/cm

In plain terms, Cn1cc[n+](CCCCCCCCCCCC[n+]2ccn(C)c2)c1.F[B-](F)(F)F.F[B-](F)(F)F [C12(mim)2-BF4] has a documented Surface Tension of 55.8 dynes/cm

// Surface Tension value for C[N+]1(CCCCCCCCC[N+]2(C)CCCC2)CCCC1.O=S(=O)([N-]S(=O)(=O)C(F)(F)F)C(F)(F)F.O=S(=O)([N-]S(=O)(=O)C(F)(F)F)C(F)(F)F [C9(mpy)2-NTf2] : 42.2 dynes/cm

Entry Cc1n(C)cc[n+]1CCCCCCCCC[n+]1ccn(C)c1C.O=S(=O)([N-]S(=O)(=O)C(F)(F)F)C(F)(F)F.O=S(=O)([N-]S(=O)(=O)C(F)(F)F)C(F)(F)F [C9(m2im)2-NTf2] ; Surface Tension = 43.5 dynes/cm
